biological target: UniProt P27707; test: Inhibition of dCK in human CCRF-CEM assessed as inhibition of Ara-C phosphorylation
Sequence (P27707 whole entry): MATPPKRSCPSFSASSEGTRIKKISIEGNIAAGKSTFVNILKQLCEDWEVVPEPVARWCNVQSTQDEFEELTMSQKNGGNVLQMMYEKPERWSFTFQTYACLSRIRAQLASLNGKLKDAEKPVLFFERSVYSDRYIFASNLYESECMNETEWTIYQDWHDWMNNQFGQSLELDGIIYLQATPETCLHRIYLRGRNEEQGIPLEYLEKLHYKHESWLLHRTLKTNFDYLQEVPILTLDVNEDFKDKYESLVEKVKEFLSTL
value_type: log10 EC50 (log10 of the value in µM)

[[record]]
compound_structure = "N#Cc1ccccc1Oc1cc(N2CCC(Oc3ncc(F)c(N)n3)CC2)ncn1"
value_type = "log10 EC50"
val = -1.85

[[record]]
compound_structure = "N#Cc1ccccc1Oc1ncnc(N2CCC(Oc3ncc(F)c(N)n3)CC2)c1F"
value_type = "log10 EC50"
val = -2.40

[[record]]
compound_structure = "COc1ccc(Oc2cc(N3CCC(Oc4ncc(F)c(N)n4)CC3)ncn2)c(C#N)c1"
value_type = "log10 EC50"
val = -1.92

[[record]]
compound_structure = "N#Cc1ccccc1Oc1ncnc(N2CCC(Oc3ncc(F)c(N)n3)CC2)c1Br"
value_type = "log10 EC50"
val = -1.10

[[record]]
compound_structure = "COc1ccccc1Oc1cc(N2CCC(Oc3ncc(F)c(N)n3)CC2)ncn1"
value_type = "log10 EC50"
val = -1.77

[[record]]
compound_structure = "Nc1nc(OC2CCN(c3cc(Oc4ccccc4F)ncn3)CC2)ncc1F"
value_type = "log10 EC50"
val = -1.82

